Record form. Attribute: TGI. Fill in for each entry.
# Tested on: SK-MEL-2 melanoma
# run description: NCI tumour cell line growth inhibition, 48 h
Only the number, expressed in µM, is required.

Q. Bench note: what TGI did `Cc1cccc(C)c1N=Nc1ccc(O)c(CN(C)C)c1` show?
A. 88.8

Q. Now try `Cn1c(-c2c(N)n(Cc3ccc(F)cc3)c3nc(C#N)c(C#N)nc23)nc2ccccc21` .
A. 34.9

Q. Now try O=C1CC(N2C(=O)/C(=C/C(Cl)=C\c3ccc([N+](=O)[O-])cc3)SC2=S)C(=O)N1c1ccc(O)cc1 (stereo not given) .
A. 7.83

Q. Now try `CN(C)CCNC(=O)c1ccc2oc3cc4ccccc4c(=O)n3c2c1` .
A. 63.5
